# assay.system: Stb5 (UniProt P38699)
# Sequence: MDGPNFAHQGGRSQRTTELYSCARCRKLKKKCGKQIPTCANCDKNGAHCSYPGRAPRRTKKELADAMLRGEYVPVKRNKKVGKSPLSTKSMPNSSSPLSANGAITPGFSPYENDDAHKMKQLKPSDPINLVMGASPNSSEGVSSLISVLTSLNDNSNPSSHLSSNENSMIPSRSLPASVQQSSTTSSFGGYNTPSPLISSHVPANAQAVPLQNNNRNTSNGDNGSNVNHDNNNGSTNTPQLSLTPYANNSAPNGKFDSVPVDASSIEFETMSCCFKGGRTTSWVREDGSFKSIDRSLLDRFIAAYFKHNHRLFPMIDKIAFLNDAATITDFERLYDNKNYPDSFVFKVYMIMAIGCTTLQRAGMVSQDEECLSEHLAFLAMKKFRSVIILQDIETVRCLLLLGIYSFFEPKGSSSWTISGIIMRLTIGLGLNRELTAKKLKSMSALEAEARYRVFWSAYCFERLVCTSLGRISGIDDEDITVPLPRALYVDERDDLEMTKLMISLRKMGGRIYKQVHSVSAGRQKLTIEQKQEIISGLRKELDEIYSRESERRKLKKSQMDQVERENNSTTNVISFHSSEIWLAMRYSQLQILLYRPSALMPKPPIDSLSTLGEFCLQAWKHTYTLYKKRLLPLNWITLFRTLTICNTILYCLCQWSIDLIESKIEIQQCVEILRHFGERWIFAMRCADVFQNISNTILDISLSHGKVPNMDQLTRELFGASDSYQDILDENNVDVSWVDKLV
# assay.procedure: PBM E-score (8-mer binding enrichment) (E-score (-0.5 to 0.5)); higher = stronger / more preferred TF binding
# reported.conditions: protein concentration: 200 nM; construct: GST-full length
Whole data set: some 33,000 sequences, median “E-score (-0.5 to 0.5)” near -0.054, cut for the highest 2% near 0.35. The list comes from a sample in which the highest values are over-represented; it also holds close analogues and randomly drawn sequences.
I would appreciate it if you labelled entries MET when PBM E-score is 0.3 or higher, otherwise NOT MET.

Examples from the recorded data:
- query.sequence: "CGGTGGTA"
  assay.system: "Stb5 (UniProt P38699)"
  category: "MET"
- query.sequence: "ACCGACAA"
  assay.system: "Stb5 (UniProt P38699)"
  category: "MET"
- query.sequence: "ATTACCTC"
  assay.system: "Stb5 (UniProt P38699)"
  category: "NOT MET"

Request: Say whether ATAATACG shows PBM E-score of 0.3 or more.
Result: NOT MET

Request: Say whether AGCCGCGC shows PBM E-score of 0.3 or more.
Result: NOT MET

Request: Say whether GGGTGGTA shows PBM E-score of 0.3 or more.
Result: NOT MET

Request: Say whether CTCCGCCC shows PBM E-score of 0.3 or more.
Result: MET

Request: Say whether AGGTAGTA shows PBM E-score of 0.3 or more.
Result: NOT MET

Request: Say whether CGGTATTC shows PBM E-score of 0.3 or more.
Result: NOT MET

###

# assay.system: Stb5 (UniProt P38699)
# Sequence: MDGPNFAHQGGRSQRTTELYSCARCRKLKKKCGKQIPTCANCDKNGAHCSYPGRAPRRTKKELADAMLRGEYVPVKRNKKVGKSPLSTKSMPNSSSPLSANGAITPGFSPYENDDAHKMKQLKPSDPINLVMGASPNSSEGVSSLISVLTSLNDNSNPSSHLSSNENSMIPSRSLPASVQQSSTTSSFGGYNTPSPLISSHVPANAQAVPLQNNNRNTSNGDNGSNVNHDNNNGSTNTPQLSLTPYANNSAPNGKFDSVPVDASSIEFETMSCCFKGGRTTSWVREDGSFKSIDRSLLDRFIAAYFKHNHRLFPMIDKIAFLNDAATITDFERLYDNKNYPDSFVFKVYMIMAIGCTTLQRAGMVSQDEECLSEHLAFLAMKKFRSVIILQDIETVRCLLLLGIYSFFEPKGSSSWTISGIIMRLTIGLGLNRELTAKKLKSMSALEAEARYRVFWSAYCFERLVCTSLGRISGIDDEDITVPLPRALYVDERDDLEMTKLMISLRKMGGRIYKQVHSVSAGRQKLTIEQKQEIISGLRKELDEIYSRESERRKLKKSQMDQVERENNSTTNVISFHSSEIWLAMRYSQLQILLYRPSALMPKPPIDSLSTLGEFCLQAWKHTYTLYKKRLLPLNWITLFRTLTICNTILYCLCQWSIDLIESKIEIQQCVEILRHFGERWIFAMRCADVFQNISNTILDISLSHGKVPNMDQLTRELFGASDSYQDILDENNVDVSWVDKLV
# assay.procedure: PBM E-score (8-mer binding enrichment) (E-score (-0.5 to 0.5)); higher = stronger / more preferred TF binding
# reported.conditions: protein concentration: 200 nM; construct: GST-full length
In all, about 33,000 sequences were measured (“E-score (-0.5 to 0.5)”: median about -0.054, highest 2% from about 0.35 on). Shown is part of a subset that was picked to be rich in the highest values.
// reported PBM E-score per item
Please respond with just the number, no unit label.

- query.sequence: "GGGCGGTA"
  assay.system: "Stb5 (UniProt P38699)"
  PBM E-score: 0.346
- query.sequence: "CAAACACA"
  assay.system: "Stb5 (UniProt P38699)"
  PBM E-score: -0.126
- query.sequence: "ACCCGCTC"
  assay.system: "Stb5 (UniProt P38699)"
  PBM E-score: 0.246

Request: PBM E-score of ACCGCCTC on Stb5 (UniProt P38699)?
Result: 0.313

Request: PBM E-score of CACCGTTA on Stb5 (UniProt P38699)?
Result: 0.367

Request: PBM E-score of GACCGGAA on Stb5 (UniProt P38699)?
Result: 0.21

Request: PBM E-score of ATGTGGTC on Stb5 (UniProt P38699)?
Result: -0.168
